Recorded values, source the supplement of paper PMC10065799.

- Test system: c-Abl (mouse);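 also: 11-residue human phosphosite peptides and single-mutation variants displayed on the E. coli surface, counted by deep sequencing, each peptide's frequency after selection divided by its frequency in the unselected input library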;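 also: frequency after pTyr selection over input frequency; kinase dosed for 20-30% of maximal phosphorylation in three min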
- EXPERIMENT_NOTES: phosphorylation enrichment, bacterial display (enrichment ratio); higher = better substrate or ligand; peptides without Tyr show the background
Definition: the class of an entry is the range in LOW: < 0.6; MID: ≥ 0.6 and < 0.8; HIGH: ≥ 0.8 that contains its phosphorylation enrichment.

Solved entries (count: 4):
- SEQUENCE_STRING: "FAKTQYPDIFA [CRX_Y63_V66I_YF]"
  ASSAYED_SYSTEM: "c-Abl (mouse)"
  CLASS: "LOW"
- SEQUENCE_STRING: "SCPANYFAFKI [FAM3D_Y65_P60S]"
  ASSAYED_SYSTEM: "c-Abl (mouse)"
  CLASS: "HIGH"
- SEQUENCE_STRING: "MKNQKYGRIIM [HSD17B4_Y143_K140N]"
  ASSAYED_SYSTEM: "c-Abl (mouse)"
  CLASS: "LOW"
- SEQUENCE_STRING: "TNRSVYFKPSL [NUP153_Y382]"
  ASSAYED_SYSTEM: "c-Abl (mouse)"
  CLASS: "LOW"

Ask: # classify by phosphorylation enrichment band: LSGFCYRLSDQ [PDCD6_Y124_G123C]
Reply: HIGH

Ask: Also, ADYPDCKYRPR [SOX11_Y116_Y116C] please.
Reply: MID

Ask: Also, DDSSAYRSVDE [BCKDHA_Y345] please.
Reply: HIGH

Ask: Also, KNITEYCRDLI [RECQL_Y492] please.
Reply: MID

Ask: Also, HRGHLYLAIEF [TEK_Y899_Y897H_YF] please.
Reply: HIGH
